Assay: MRT (0 to infinity) in Sprague-Dawley rat at 1 mg/kg, iv measured upto 24 hrs by LC-MS/MS analysis
Assay type: ADME, organism-based
Details: in vivo
MEASURED_ATTRIBUTE: MRT inf (h)
Write it as a number; the unit h goes unstated.

Input: Using the record for CONC(=O)c1cnc(Nc2ccc(C#N)cc2)nc1Oc1c(C)cc(-c2ccc(C#N)cc2)cc1C , report its MRT inf.
Output: 3.75

* * *

Assay: Cmax in Sprague-Dawley rat at 10 mg/kg, po measured upto 24 hrs by LC-MS/MS analysis
Assay type: ADME, organism-based
Design: time < 24 hrs, dose 10 mg/kg, route po
Conditions: in vivo
MEASURED_ATTRIBUTE: Cmax (ng/mL)
Write it as a number; the unit ng/mL goes unstated.

Input: Using the record for CONC(=O)c1cnc(Nc2ccc(C#N)cc2)nc1Oc1c(C)cc(-c2ccc(C#N)cc2)cc1C , report its Cmax.
Output: 616

* * *

Experiment: Resistant factor, ratio of EC50 for antiviral activity against HIV-1 IIIB harboring reverse transcriptase E138K mutant to EC50 for antiviral activity against wild type HIV-1 IIIB
Format: functional
just bin them by Ratio EC50: low end (below 2), middle (2 to below 4), high end (4 or more)

// known answers, use as guide
| COMPOUND_STRING | LABEL |
| --- | --- |
| Cc1cc(-c2ccc(C#N)cc2)cc(C)c1Oc1nc(Nc2ccc(C#N)cc2)ncc1C(=O)NC(C)C | low end |
| CCCNC(=O)c1cnc(Nc2ccc(C#N)cc2)nc1Oc1c(C)cc(-c2ccc(C#N)cc2)cc1C | middle |
| N#Cc1ccc(Nc2ncc(C(N)=O)c(Oc3ccc(-c4ccc(C#N)cc4)cc3Cl)n2)cc1 | high end |

Okay, next one:
Input: Lab note: sort COc1cc(-c2ccc(C#N)cc2)ccc1Oc1nc(Nc2ccc(C#N)cc2)ncc1C(N)=O into the matching Ratio EC50 band.
Output: low end

* * *

Tested on: Human immunodeficiency virus 1
Experiment: Antiviral activity against wild type HIV-1 IIIB infected in human MT4 cells assessed as protection against virus-induced cytopathic effect incubated for 5 days by MTT assay
Assay type: functional, organism-based
Conditions: Human immunodeficiency virus 1, IIIB, MT4, 120 h
MEASURED_ATTRIBUTE: pEC50
Recall that pEC50 is obtained by taking minus log10 of the concentration measured in molar.

| MOLECULE | RECORDED_RESULT |
| --- | --- |
| Cc1cc(-c2ccc(C#N)cc2)cc(C)c1Oc1nc(Nc2ccc(C#N)cc2)ncc1C(=O)NCC1CC1 | 6.99 |
| Cc1cc(-c2ccc(C#N)cc2)ccc1Oc1nc(Nc2ccc(C#N)cc2)ncc1C(N)=O | 7.51 |

Input: Please state recorded pEC50 (tested on Human immunodeficiency virus 1) of Cc1cc(-c2ccc(C#N)cc2)cc(C)c1Oc1nc(Nc2ccc(C#N)cc2)ncc1C(=O)NC1CCCCC1
Output: 6.76

Input: Please state recorded pEC50 (tested on Human immunodeficiency virus 1) of Cc1cc(C#N)cc(C)c1Oc1nc(Nc2ccc(C#N)cc2)nc(N)c1Br [ETRAVIRINE]
Output: 8.22

Input: Please state recorded pEC50 (tested on Human immunodeficiency virus 1) of CCCNC(=O)c1cnc(Nc2ccc(C#N)cc2)nc1Oc1c(C)cc(-c2ccc(C#N)cc2)cc1C
Output: 7.89

* * *

Entries and their measured IC50 follow.
Biological target: Human immunodeficiency virus type 1 reverse transcriptase (Human immunodeficiency virus 1, UniProt Q72547)
Test: Inhibition of recombinant wild type HIV-1 reverse transcriptase using DNA/RNA as substrate incubated for 40 mins by Pico-green dye based spectrofluorometric analysis
Write it as a number; the unit nM goes unstated.

Below are worked cases with known answers.
| COMPOUND_STRING | IC50 [nM] |
| --- | --- |
| CNC(=O)c1cnc(Nc2ccc(C#N)cc2)nc1Oc1c(C)cc(-c2ccc(C#N)cc2)cc1C | 56 |
| Cc1cc(-c2ccc(C#N)cc2)cc(C)c1Oc1nc(Nc2ccc(C#N)cc2)ncc1C(=O)NC1CC1 | 111 |
| Cc1cc(-c2ccc(C#N)cc2)cc(C)c1Oc1nc(Nc2ccc(C#N)cc2)ncc1C(=O)NCC1CC1 | 294 |
| CCONC(=O)c1cnc(Nc2ccc(C#N)cc2)nc1Oc1c(C)cc(-c2ccc(C#N)cc2)cc1C | 94 |

Input: Using the record for Cc1cc(-c2ccc(C#N)cc2)cc(C)c1Oc1nc(Nc2ccc(C#N)cc2)ncc1C(N)=O , report its IC50.
Output: 26

* * *

Assay: Cmax in Sprague-Dawley rat at 1 mg/kg, iv measured upto 24 hrs by LC-MS/MS analysis
Type: ADME, organism-based
Design: time < 24 hrs, dose 1 mg/kg, route iv
Details: in vivo
MEASURED_ATTRIBUTE: Cmax
Answer as a quantity: numeral, then unit.

Input: Using the record for CONC(=O)c1cnc(Nc2ccc(C#N)cc2)nc1Oc1c(C)cc(-c2ccc(C#N)cc2)cc1C , report its Cmax.
Output: 431 ng/mL

* * *

Test: Oral bioavailability in Sprague-Dawley rat at 10 mg/kg measured upto 24 hrs by LC-MS/MS analysis
Format: ADME, organism-based
Settings: in vivo
MEASURED_ATTRIBUTE: bioavailability (%)
Write it as a number; the unit % goes unstated.

Input: Using the record for CONC(=O)c1cnc(Nc2ccc(C#N)cc2)nc1Oc1c(C)cc(-c2ccc(C#N)cc2)cc1C , report its bioavailability.
Output: 31.2

* * *

Test: Tmax in Sprague-Dawley rat at 1 mg/kg, iv measured upto 24 hrs by LC-MS/MS analysis
Type: ADME, organism-based
Conditions: in vivo
MEASURED_ATTRIBUTE: Tmax (min)
Write it as a number; the unit min goes unstated.

Input: Using the record for CONC(=O)c1cnc(Nc2ccc(C#N)cc2)nc1Oc1c(C)cc(-c2ccc(C#N)cc2)cc1C , report its Tmax.
Output: 4.98

* * *

Assay: MRT (0 to t) in Sprague-Dawley rat at 10 mg/kg, po measured upto 24 hrs by LC-MS/MS analysis
Assay type: ADME, organism-based
Conditions: in vivo
MEASURED_ATTRIBUTE: MRT last at 24 h (h)
Write it as a number; the unit h goes unstated.

Input: Using the record for CONC(=O)c1cnc(Nc2ccc(C#N)cc2)nc1Oc1c(C)cc(-c2ccc(C#N)cc2)cc1C , report its MRT last at 24 h.
Output: 4.54

* * *

Test system: Human immunodeficiency virus 1
Test: Antiviral activity against wild type HIV-1 IIIB harboring reverse transcriptase […] mutant infected in human MT4 cells assessed as protection against virus-induced cytopathic effect incubated for 5 days by MTT assay
Type: functional, organism-based
Conditions: Human immunodeficiency virus 1, IIIB, MT4, 120 h
Please assign rule not met whenever EC50 is at or above 50 nM, and rule met whenever it is below.

// known answers, use as guide
| COMPOUND_STRING | LABEL |
| --- | --- |
| O=C1Nc2ccc(Cl)cc2[C@@](C#CC2CC2)(C(F)(F)F)O1 | rule met |
| N#Cc1ccc(Nc2ncc(C(N)=O)c(Oc3ccc(-c4ccc(C#N)cc4)cc3F)n2)cc1 | rule not met |
| Cc1cc(/C=C/C#N)cc(C)c1Nc1ccnc(Nc2ccc(C#N)cc2)n1 | rule met |
| Cc1cc(-c2ccc(C#N)cc2)ccc1Oc1nc(Nc2ccc(C#N)cc2)ncc1C(N)=O | rule not met |
| Cc1cc(-c2ccc(C#N)cc2)cc(C)c1Oc1nc(Nc2ccc(C#N)cc2)ncc1C(=O)NCC1CC1 | rule not met |

Input: Lab note: confirm whether the reported EC50 for this molecule is below 50 nM, equality not counting. molecule: C#CCNC(=O)c1cnc(Nc2ccc(C#N)cc2)nc1Oc1c(C)cc(-c2ccc(C#N)cc2)cc1C
Output: rule met

Input: Lab note: confirm whether the reported EC50 for this molecule is below 50 nM, equality not counting. molecule: CCONC(=O)c1cnc(Nc2ccc(C#N)cc2)nc1Oc1c(C)cc(-c2ccc(C#N)cc2)cc1C
Output: rule met

Input: Lab note: confirm whether the reported EC50 for this molecule is below 50 nM, equality not counting. molecule: Cc1cc(-c2ccc(C#N)cc2)cc(C)c1Oc1nc(Nc2ccc(C#N)cc2)ncc1C(=O)NC1CCC1
Output: rule not met

* * *

Entries and their measured selectivity ratio follow.
Assay: Selectivity index, ratio of CC50 for cytotoxicity against human MT4 cells to EC50 for antiviral activity against wild type HIV-1 IIIB infected in human MT4 cells
Assay type: toxicity, cell-based
Conditions: read-out: Ratio CC50/EC50

Input: Using the record for Cc1cc(-c2ccc(C#N)cc2)cc(C)c1Oc1nc(Nc2ccc(C#N)cc2)ncc1C(=O)NCCO , report its selectivity ratio.
Output: > 11900

Input: Using the record for N#Cc1ccc(Nc2ncc(C(N)=O)c(Oc3ccc(-c4ccc(C#N)cc4)cc3F)n2)cc1 , report its selectivity ratio.
Output: > 1720

* * *

Assay: AUC (0 to t) in Sprague-Dawley rat at 10 mg/kg, po measured upto 24 hrs by LC-MS/MS analysis
Assay type: ADME, organism-based
Design: dose 10 mg/kg, time < 24 hrs, route po
Conditions: in vivo
MEASURED_ATTRIBUTE: AUC(0-t) at 24 h

Input: Using the record for CONC(=O)c1cnc(Nc2ccc(C#N)cc2)nc1Oc1c(C)cc(-c2ccc(C#N)cc2)cc1C , report its AUC(0-t) at 24 h.
Output: 3570 ng·h/mL
